protocol notes: Quantitative High-Throughput drug screen in 47 multiple myeloma cell lines against the NCATS MIPE library collection: MOLP8_DSMZ cell viability assay (AID 1918977); further: nearly all actives have a fitted effect of over 45% in size; further: potency means the concentration at half of the fitted maximal effect
experimental setup: MOLP8 myeloma viability, CellTiter-Glo ATP luminescence, 48 h; series mostly up to 45.8 µM
Results filed as inconclusive are left out. Activity calls are given as the source filed them. The call rests on the fitted dose curve; in most records, active means well fitted cell-killing curve with a large enough effect; inconclusive means small, poorly fitted or top-dose-only effect, or effect the other way; inactive means no such curve, though single readings can be large or run the other way.
measurement kind: Potency

As a guide, the following entries are already answered.
molecule=CCn1c(-c2nonc2N)nc2cncc(CNC3CCNCC3)c21 measurement_kind=Potency result="14.8 µM (active)"
molecule=COC(=O)N1CCN(Cc2cccc(NC(=O)Nc3ccc(C)nc3)c2F)CC1 measurement_kind=Potency result=inactive
molecule=Oc1cc(O)cc(C=Cc2ccc(O)c(O)c2)c1 measurement_kind=Potency result="18.7 µM (active)"
molecule=Cc1ccc(S(=O)(=O)OCC(=O)Nc2ccc(C(=O)O)c(O)c2)cc1 measurement_kind=Potency result=inactive
molecule="CC1=C(C(=O)Nc2cc3cn[nH]c3cc2F)C(c2ccc(C(F)(F)F)cc2)CC(=O)N1 (configuration not stated)" measurement_kind=Potency result=inactive

Name the recorded Potency for CC(C)CN(C[C@H](O)[C@H](Cc1ccccc1)NC(=O)O[C@H]1CCOC1)S(=O)(=O)c1ccc(N)cc1 . inactive

How about CC[C@H](NC(=O)[C@H](C)NC)C(=O)N1C[C@@H](O)C[C@H]1Cc1c(-c2[nH]c3cc(F)ccc3c2C[C@H]2C[C@H](O)CN2C(=O)[C@H](CC)NC(=O)[C@H](C)NC)[nH]c2cc(F)ccc12 ? inactive

Try this molecule next: N#CC(c1ccnc(NCCc2cccnc2)n1)c1nc2ccccc2s1 (configuration not stated) inactive

Also check O=C(C=Cc1ccc(O)cc1)c1ccc(O)cc1O 14.8 µM (active)

Param item: CC(NCCc1ccc(O)cc1)C(O)c1ccc(O)cc1 (configuration not stated) inactive

Next entry: CN(C)CCN(C)C(=O)c1ccc(NC(=O)Nc2ccc(-c3nc(N4CCOCC4)c4ccn(CC(F)(F)F)c4n3)cc2)cc1 0.0066 µM (active)

What about this molecule? OC[C@H]1O[C@@H](OCCc2ccc(O)cc2)[C@H](O)[C@@H](O)[C@H]1O inactive

Try the molecule CCOC(=O)c1c(CSc2ccccc2)n(C)c2cc(Br)c(O)c(CN(C)C)c12 5.9 µM (active)

Record: CN1CCC(COc2cnc(-c3cccc(Cn4nc(-c5cccc(C#N)c5)ccc4=O)c3)nc2)CC1 inactive

CC(C)(C)c1nc(-c2cccc(NS(=O)(=O)c3c(F)cccc3F)c2F)c(-c2ccnc(N)n2)s1 , same question. 5.9 µM (active)

NC[C@H]1O[C@H](O[C@@H]2[C@@H](O)[C@@H](O[C@H]3O[C@H](CO)[C@@H](O)[C@H](N)[C@@H]3O)[C@H](N)C[C@@H]2N)[C@H](O)[C@@H](O)[C@H]1O ? inactive
